The following binders are shown together with reported pEC50 values.
target: T1, Cynomolgus monkey GCGR (cynomolgus monkey); test: cell ELISA on fixed CHO cells overexpressing GCGR
T1 construct: whole, on cells; also called cynomolgus GCGR
Reminder that pEC50 means the negative base-10 logarithm of the concentration expressed in mol/L.

ch1817 (antibody, human IgG4 S228P, kappa, F234A L235A, V domains shown, IgG4-AA / kappa chimeric antibody) VH: EVQLVESGGDLVQPGRSMKLSCAASGFTFSNYYMAWVRQAPTKGLEWVASISTGGVNTYYRDSVKGRFTISRDNAKNNLYLQMDSLRSEETATYYCARHTTADYFYGIYFALDAWGQGTSVTVSS VL: QFTLTQPKSVSGSLRSTITIPCERSSGDIGDSYVNWYQQHLGRPPLNVIYADVQRPSEVSDRFSGSIDSSSNSASLTITNLQMDDEADYFCQSYDTNIDIIFGGGTKLTVLR    9.53
ch1810 (antibody, human IgG4 S228P, kappa, F234A L235A, V domains shown) VH: QVQLQQSGTELARPGTSVTLSCKASGYTFTNYAISWVKQRTGQGLEWIGEIYPTSGNTYYNEKFKGKATLTADRSSKTMYMELRSLTSVDSAVYFCASGVITTVVSTDYFDYWGQGSPLTVSS VL: DIQMTQIPSSLSVSLGDRVTISCRASLDISNYLNWYQLKPDGTVKLLIYYTSTLHSGVSSRFSGSGSGTEYSLTISNLEQEDIATYFCQQGNMVPYTFGGGTKLEIKR    9.61

Note: attention shifts to another entry.
ch1805 (antibody, human IgG4 S228P, kappa, F234A L235A, V domains shown, IgG4-AA / kappa chimeric antibody; also called chimeric antibody of clone 1805) VH: EVQLQQSGPELVKPGASVKIPCKTSGYTFTDYNMDWVKQSHGRSLEWIGSIDPDNGGTIYNQKFKGKATLTVDKSSSTAYMELRSLTSEDTAVYYCTRDYYGSSSWFAYWGQGTLVTVSA VL: DVVMTQSPATLSVTPGDRVSLSCRASQSISDYLHWYQQKSHESPRLLIKYASQSISGIPSRFSGSGSGSDFTLSINSVEPEDVGVYYCQNGHSFPYTFGGGTKLEIKR yielded pEC50 of 9.45
